Cited source for all entries: ChEMBL document CHEMBL1141069

- tested system: Androgen receptor (Rattus norvegicus, UniProt P15207)
- Sequence (P15207 whole entry S389L): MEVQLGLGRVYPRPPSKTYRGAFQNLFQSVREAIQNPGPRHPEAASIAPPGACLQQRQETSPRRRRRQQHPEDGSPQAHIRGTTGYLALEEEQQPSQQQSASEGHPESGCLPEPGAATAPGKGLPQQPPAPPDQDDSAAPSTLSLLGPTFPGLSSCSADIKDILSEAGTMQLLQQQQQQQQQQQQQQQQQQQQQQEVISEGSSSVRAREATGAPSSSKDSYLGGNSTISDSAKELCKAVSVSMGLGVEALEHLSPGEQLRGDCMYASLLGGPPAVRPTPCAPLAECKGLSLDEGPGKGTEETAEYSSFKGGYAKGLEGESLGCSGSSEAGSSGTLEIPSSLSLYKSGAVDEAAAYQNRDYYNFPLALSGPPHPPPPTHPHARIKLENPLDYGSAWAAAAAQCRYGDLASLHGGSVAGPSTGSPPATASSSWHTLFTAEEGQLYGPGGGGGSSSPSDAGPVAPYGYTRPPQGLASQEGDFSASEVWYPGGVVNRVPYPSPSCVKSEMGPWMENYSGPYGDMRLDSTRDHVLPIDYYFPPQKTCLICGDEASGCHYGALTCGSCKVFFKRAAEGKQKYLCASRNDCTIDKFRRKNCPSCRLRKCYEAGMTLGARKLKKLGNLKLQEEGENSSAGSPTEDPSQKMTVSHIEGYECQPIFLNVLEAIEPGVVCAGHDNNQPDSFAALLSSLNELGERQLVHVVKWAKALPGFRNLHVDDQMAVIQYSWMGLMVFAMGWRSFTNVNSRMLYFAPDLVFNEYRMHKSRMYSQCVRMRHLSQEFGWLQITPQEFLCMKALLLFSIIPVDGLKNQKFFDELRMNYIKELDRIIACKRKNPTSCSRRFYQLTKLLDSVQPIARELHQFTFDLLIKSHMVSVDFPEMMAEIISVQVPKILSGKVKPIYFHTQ
Response field label takes Condition met when IC50 is strictly below 60 µM and Condition not met in all other cases.

Check out these entries, answers already filled in.
{"columns": ["compound", "tested system", "qualitative label"],
 "data": [
  ["Oc1ccc(/C=C/c2ccc(O)cc2)cc1 [TRANS-4,4'-DIHYDROXYSTILBENE]", "Androgen receptor (Rattus norvegicus, UniProt P15207)", "Condition not met"],
  ["Oc1ccc(-c2cc(Cl)c(Cl)c(Cl)c2Cl)cc1", "Androgen receptor (Rattus norvegicus, UniProt P15207)", "Condition met"],
  ["ClC1=C(Cl)C2(Cl)C3C(Cl)C(Cl)CC3C1(Cl)C2(Cl)Cl (stereo not drawn) [CHLORDANE]", "Androgen receptor (Rattus norvegicus, UniProt P15207)", "Condition met"],
  ["O=C1CC(c2ccccc2)Oc2ccccc21 (stereo not drawn) [FLAVANONE]", "Androgen receptor (Rattus norvegicus, UniProt P15207)", "Condition met"],
  ["COc1ccc2c(c1)CCC(c1ccccc1)=C2c1ccc(OCCN2CCCC2)cc1 [NAFOXIDINE]", "Androgen receptor (Rattus norvegicus, UniProt P15207)", "Condition met"]
]}

Quick check: IC50 of `Cc1ccc2c(c1)CC[C@@H]1[C@@H]2CC[C@]2(C)[C@@H](O)[C@@](C)(O)C[C@@H]12` under 60 µM? Condition met
